Assay: Drug concentration in mouse brain at 10 mg/kg, po after 2 hrs
Format: ADME, organism-based
Settings: read-out: Ct
endpoint-name: concentration at 2 h (ng/g)
Numbers only, in ng/g.

Consider Cc1c(Nc2c(F)ccc(NS(=O)(=O)CCCF)c2Cl)ccc2ncn(C)c(=O)c12 [TINLORAFENIB] . Its measured concentration at 2 h is 1600

----------
Experiment: Substrate activity at P-gp in LLC-PK1 cells assessed as efflux ratio of apparent permeability from basolateral to apical side over apical to basolateral side
Type: ADME, cell-based, Sus scrofa
Conditions: pig
endpoint-name: Ratio
Numbers only.

CCCS(=O)(=O)Nc1ccc(F)c(Nc2ccc3ncn(C)c(=O)c3c2)c1F :: 11.1
CCCS(=O)(=O)Nc1ccc(F)c(N(CC)c2ccc3ncn(C)c(=O)c3c2)c1F :: 1.5
CCCS(=O)(=O)Nc1ccc(F)c(Nc2ccc3ncn(C)c(=O)c3c2C)c1Cl :: 1.3
CCS(=O)(=O)Nc1ccc(F)c(Nc2ccc3ncn(C)c(=O)c3c2C)c1Cl :: 1.8

Switching to the query record.
The compound listed as `CCCS(=O)(=O)Nc1ccc(F)c(N(C)c2ccc3ncn(C)c(=O)c3c2)c1Cl` has a reported Ratio of 3.6
